This collection of values is drawn from ChEMBL document CHEMBL2390921.

measurement target: Sodium channel protein type 9 subunit alpha (Homo sapiens)
Sequence (Q15858 whole entry): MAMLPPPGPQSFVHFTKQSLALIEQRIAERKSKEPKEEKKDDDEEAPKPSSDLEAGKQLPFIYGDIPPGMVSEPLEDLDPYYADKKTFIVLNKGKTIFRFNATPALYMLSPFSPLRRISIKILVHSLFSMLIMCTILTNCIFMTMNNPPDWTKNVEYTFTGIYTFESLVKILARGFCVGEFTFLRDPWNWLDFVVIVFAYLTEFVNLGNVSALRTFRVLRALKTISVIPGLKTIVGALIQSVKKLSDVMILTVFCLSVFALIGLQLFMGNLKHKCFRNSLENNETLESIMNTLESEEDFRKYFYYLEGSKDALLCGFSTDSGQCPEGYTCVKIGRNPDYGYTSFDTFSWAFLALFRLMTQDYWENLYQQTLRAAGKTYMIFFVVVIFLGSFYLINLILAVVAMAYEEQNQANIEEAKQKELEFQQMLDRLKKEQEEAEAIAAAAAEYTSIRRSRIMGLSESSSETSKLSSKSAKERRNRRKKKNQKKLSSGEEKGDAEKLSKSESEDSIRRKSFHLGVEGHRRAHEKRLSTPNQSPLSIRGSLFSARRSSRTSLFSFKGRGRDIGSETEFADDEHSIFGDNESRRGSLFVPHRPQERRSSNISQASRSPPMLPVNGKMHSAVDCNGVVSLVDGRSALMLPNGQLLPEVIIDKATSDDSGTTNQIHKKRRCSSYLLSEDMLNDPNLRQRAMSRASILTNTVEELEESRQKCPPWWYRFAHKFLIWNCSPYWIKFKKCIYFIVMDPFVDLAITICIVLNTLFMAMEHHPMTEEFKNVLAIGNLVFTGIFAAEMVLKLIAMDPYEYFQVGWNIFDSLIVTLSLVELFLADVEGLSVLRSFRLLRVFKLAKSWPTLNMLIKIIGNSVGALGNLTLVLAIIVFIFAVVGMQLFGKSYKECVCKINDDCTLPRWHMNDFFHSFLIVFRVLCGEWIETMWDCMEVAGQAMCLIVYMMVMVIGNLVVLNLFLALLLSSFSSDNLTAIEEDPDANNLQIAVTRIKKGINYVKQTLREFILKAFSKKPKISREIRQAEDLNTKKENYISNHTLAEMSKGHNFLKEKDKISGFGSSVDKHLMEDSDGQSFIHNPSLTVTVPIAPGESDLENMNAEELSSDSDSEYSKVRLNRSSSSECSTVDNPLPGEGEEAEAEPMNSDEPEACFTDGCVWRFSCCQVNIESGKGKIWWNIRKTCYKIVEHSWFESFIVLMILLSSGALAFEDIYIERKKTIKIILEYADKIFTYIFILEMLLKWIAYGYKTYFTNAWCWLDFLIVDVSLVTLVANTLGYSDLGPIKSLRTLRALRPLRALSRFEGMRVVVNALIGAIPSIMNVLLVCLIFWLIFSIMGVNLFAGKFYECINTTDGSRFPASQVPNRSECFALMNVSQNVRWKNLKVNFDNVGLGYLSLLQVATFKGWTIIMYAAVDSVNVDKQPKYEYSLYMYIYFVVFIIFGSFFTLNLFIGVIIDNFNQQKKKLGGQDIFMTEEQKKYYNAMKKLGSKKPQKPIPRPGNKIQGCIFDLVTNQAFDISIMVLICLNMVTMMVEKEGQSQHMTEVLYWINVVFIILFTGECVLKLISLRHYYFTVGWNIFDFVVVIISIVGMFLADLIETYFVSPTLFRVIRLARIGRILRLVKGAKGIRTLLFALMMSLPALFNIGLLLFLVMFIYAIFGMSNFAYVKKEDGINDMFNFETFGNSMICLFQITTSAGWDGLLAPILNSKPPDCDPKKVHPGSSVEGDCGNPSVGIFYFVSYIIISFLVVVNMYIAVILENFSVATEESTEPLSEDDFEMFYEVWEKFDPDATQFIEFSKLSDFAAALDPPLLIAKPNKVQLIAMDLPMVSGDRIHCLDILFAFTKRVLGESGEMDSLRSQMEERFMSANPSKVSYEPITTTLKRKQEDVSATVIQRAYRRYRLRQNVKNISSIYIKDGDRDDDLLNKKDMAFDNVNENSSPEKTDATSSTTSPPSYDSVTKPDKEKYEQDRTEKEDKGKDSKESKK
test method notes: Inhibition of human NaV1.7 channel expressed in HEK293 cells by FRET assay
pIC50: −log10 of the molar value.
parameter measured: pIC50

molecule="CC1CC1N1C(=O)[C@H](NC(=O)[C@@H](Cc2ccccc2F)NC(=O)C2CC2C(F)(F)F)CCc2c(F)c(F)cc(F)c21 (some centres undefined)" parameter_measured=pIC50 obs_value=7.00
molecule=CC(C)N1C(=O)[C@H](NC(=O)[C@@H](Cc2ccccc2OC(F)(F)F)NC(=O)OC(C)(C)C)CCc2cc(C(F)(F)F)ccc21 parameter_measured=pIC50 obs_value=6.74
molecule=CC(C)N1C(=O)[C@H](NC(=O)[C@@H](Cc2ccccc2F)NC(=O)c2ccc(F)cc2C(F)(F)F)CCc2cc(F)ccc21 parameter_measured=pIC50 obs_value=6.60
molecule=CC(C)N1C(=O)[C@H](NC(=O)[C@@H](Cc2ccccc2OC(F)(F)F)NC(=O)OC(C)(C)C)CCc2cc(F)cc(F)c21 parameter_measured=pIC50 obs_value=7.24
